# Test system: SW-620 colon
# experimentalProtocol: NCI tumour cell line growth inhibition, 48 h
quantityName: TGI

Recorded TGI, per entry:
compound	testedSystem	TGI
O=C1C(=Cc2ccc([N+](=O)[O-])o2)C(=O)N(CCc2ccccc2)S(=O)(=O)N1CCc1ccccc1	SW-620 colon	33.9 µM
CC(=O)CC12NC(=O)N(C)N=C1N(C)C(=O)N(C)C2=O (stereo not drawn)	SW-620 colon	> 100 µM
CCOC(=O)C1=C(C)N(c2ccc(Cl)cc2)C2(O)C=CC(Nc3ccc(Cl)cc3)=C3C(=O)N(c4ccccc4)C(=O)C312 (stereo not drawn)	SW-620 colon	14.6 µM
CC(C)(/C=N/O)/[N+]([O-])=C/c1ccccc1	SW-620 colon	> 100 µM
COc1cc([C@@H]2c3cc4c(cc3[C@@H](NC(=O)c3ccc(OC(C)=O)cc3)C3COC(=O)[C@@H]32)OCO4)cc(OC)c1O (stereo partly drawn)	SW-620 colon	15 µM

Please state recorded TGI (tested on SW-620 colon) of C/C(CC(=O)Nc1ccc([N+](=O)[O-])cc1)=N\Nc1ccc([N+](=O)[O-])cc1[N+](=O)[O-] > 100 µM

Request body: readout TGI, system SW-620 colon, query COc1ccc(N2C(=O)C(=O)C3(CCCCC3)C2=O)c(OC)c1OC . Return the value. > 100 µM

Missing value: TGI, SW-620 colon, entry O=C(Nc1nc(-c2ccccc2Cl)cs1)c1cc(-c2ccc(Cl)cc2)nc2ccc(Cl)cc12 . Fill in? > 100 µM

Fill in the recorded TGI for this compound, with SW-620 colon as test system: CC(=O)N1CCN(CCCCN2c3ccccc3Sc3cc(N=[N+]=[N-])ccc32)CC1 29.3 µM

Find TGI (SW-620 colon) for the entry C[C@H]1CCC2C(CN3CCCCC3)C(=O)OC2[C@]2(C)C(=O)CC(N3CCCCC3)C12O (stereo partly drawn) 10.3 µM

Under SW-620 colon: TGI value of CN(CC1NCCCC1O)C12CC3CC(CC(C3)C1)C2 (stereo not drawn) ? > 100 µM

Under SW-620 colon: TGI value of O=C(Nc1ccc(Cl)cc1)c1cc2ccccc2cc1OP(=O)(O)O ? 37.5 µM

Recall the recorded TGI for CC(C)OC(=O)c1cccnc1/C=N/O with SW-620 colon and state it. > 100 µM

----------
# Test system: OVCAR-4 ovarian
# experimentalProtocol: NCI tumour cell line growth inhibition, 48 h
quantityName: TGI

Take a look at these entries with their results.
molecule	recordedValue
Cc1sc2nc3n(c(=O)c2c1C)N=C(c1ccccc1)CS3	> 100 µM
Cc1cc(=O)[nH]c(NNC(C#N)c2ccc(N(C)C)cc2)n1 (stereo unspecified)	> 100 µM
COc1cc(/C=C/C2=NN(c3cccc(S(=O)(=O)O)c3)C3(C2)SCC(=O)N3c2nc3ccccc3s2)cc(OC)c1OC (stereo unspecified)	> 100 µM
Cc1ccc(S(=O)(=O)NCCCSCCO)cc1	> 100 µM
CN(CC1NCCCC1O)C12CC3CC(CC(C3)C1)C2 (stereo unspecified)	> 100 µM

Quick one: TGI of CN(C)C=Nc1c2c(nc3ccccc13)CCCC2 ? > 100 µM

Which TGI value belongs to NNC(=S)NN/C=C(\C=Nc1ccccc1)[N+](=O)[O-] ? > 100 µM

I would be grateful if you could share the reported TGI for CC(=O)CC12NC(=O)N(C)N=C1N(C)C(=O)N(C)C2=O (stereo unspecified) . > 100 µM
